Source: patent US11773132B2

- system: Human STING (Homo sapiens, UniProt Q86WV6, G230A/H232R/R293Q/R71H)
- Construct: host or cells: THP1-Dual cells (human monocytic reporter line)
- Sequence (Q86WV6 whole entry R71H/G230A/H232R/R293Q): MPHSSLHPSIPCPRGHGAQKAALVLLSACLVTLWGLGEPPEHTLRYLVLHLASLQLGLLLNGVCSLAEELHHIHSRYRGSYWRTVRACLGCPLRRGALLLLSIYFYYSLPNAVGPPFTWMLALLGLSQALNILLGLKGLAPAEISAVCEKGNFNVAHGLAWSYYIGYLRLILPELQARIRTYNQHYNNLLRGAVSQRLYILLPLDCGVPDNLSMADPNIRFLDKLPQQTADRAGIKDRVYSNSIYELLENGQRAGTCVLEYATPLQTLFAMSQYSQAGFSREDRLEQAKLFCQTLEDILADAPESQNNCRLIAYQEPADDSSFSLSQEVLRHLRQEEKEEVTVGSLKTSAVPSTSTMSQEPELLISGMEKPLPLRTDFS
- protocol: THP1-Dual cell assay, IRF pathway reporter luminescence readout (QUANTI-Luc)
- Format: cell-based
- experimental_conditions: THP1-Dual cells, 24 h, 30 μM, Table 2
measure_name: Readout n = 2
A bare number is all that is needed in reply.

For this molecule ( BP1(=O)OC[C@H]2O[C@@H](n3cnc4c(NCc5ccccc5)ncnc43)[C@H](OP(=O)(S)OC[C@H]3O[C@@H](n4cnc5c(NCc6ccccc6)ncnc54)[C@H](O)[C@@H]3O1)[C@@H]2O (single isomer, unassigned) [Compound D4] ), measured Readout n = 2 is 486440

Form field Readout n = 2, entry BP1(=O)OC[C@H]2O[C@@H](n3cnc4c(NCc5ccccc5)ncnc43)[C@H](OP(=O)(S)OC[C@H]3O[C@@H](n4cnc5c(NCc6ccccc6)ncnc54)[C@H](O)[C@@H]3O1)[C@@H]2O (single isomer, unassigned) [Compound D2] : 29570

The molecule identified as BP1(=O)OC[C@H]2O[C@@H](n3cnc4c(NCc5ccccc5)ncnc43)[C@H](OP(=O)(S)OC[C@H]3O[C@@H](n4cnc5c(NCc6ccccc6)ncnc54)[C@H](O)[C@@H]3O1)[C@@H]2O (single isomer, unassigned) [Compound D1] registered its Readout n = 2 at 21660

Form: molecule = BP1(=O)OC[C@H]2O[C@@H](n3cnc4c(NCc5ccccc5)ncnc43)[C@H](OP(=O)(S)OC[C@H]3O[C@@H](n4cnc5c(NCc6ccccc6)ncnc54)[C@H](O)[C@@H]3O1)[C@@H]2O (single isomer, unassigned) [Compound D3] ; Readout n = 2 = 258740
